target: Scavenger receptor class B member 1 (Mus musculus); assay: mouse SR-BI DiI-HDL uptake blockers – ldlA[mSR-BI] cells, fluorescence, single point, primary screen (AID 488896); details: ldlA[mSR-BI] CHO cells, 3 h, at 12.5 µM
Out of some 320,000 compounds screened, about 3,100 (0.97%) were called active.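 How the source made its calls: active means mean replicate inhibition of at least 70% and a set share of replicates each scoring 70 or more; inconclusive means meets just one of the two criteria; inactive means fails both criteria.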 The sample holds actives, similar compounds and a random draw of the others, so the mix is not that of the screen.
Outcome codes: active, inactive

molecule: O=S1(=O)CCOC[C@H](Cc2ccccc2)N1Cc1ccccc1Br
group: inactive

molecule: CC(C)(C)c1cc(C(=O)NN)n(Cc2ccc(Cl)cc2Cl)n1
group: active

molecule: Cc1ccc(N=C2SCCCN2C(=O)c2cccc(N3C(=O)CCC3=O)c2)cc1Cl
group: inactive

molecule: CC(C)CN(C(=O)COC(=O)c1ccc(Cl)c(N)c1)c1c(N)n(Cc2ccccc2)c(=O)[nH]c1=O
group: inactive

molecule: NNC(=O)c1ccc(Cl)cc1Cl
group: inactive

molecule: C[n+]1cccc(C(=O)O)c1
group: inactive

molecule: Cc1cc(NC(=O)c2cc3ccccc3o2)no1
group: inactive

molecule: CCc1nnc(NC(=O)c2cc(S(=O)(=O)N3CCN(CC)CC3)ccc2Cl)s1
group: inactive

molecule: O=C(CC(=O)c1cccnc1)c1ccccc1
group: inactive

molecule: O=C1C[C@@H]2c3c(cccc3CN1Cc1ccccc1)C[C@@H](O)[C@H]2O
group: inactive

molecule: CC(C)CN(C(=O)COC(=O)c1ccc2ccccc2c1)c1c(N)n(Cc2ccccc2)c(=O)[nH]c1=O
group: inactive

molecule: CC(=O)N1CCc2ccc(N)cc21
group: inactive

molecule: CCC1CCCCN1C(=S)Nc1ccc(C(C)=O)cc1 (stereo not drawn)
group: inactive

molecule: COc1ccc(C)cc1Nc1nc(C)nc2c1oc1ccccc12
group: inactive

molecule: CS(=O)(=O)c1ccc2nc(NC(=O)C3C4C=CC(C4)C3C(=O)O)sc2c1 (stereo not drawn)
group: inactive

molecule: NS(=O)(=O)c1cccc(NC(=O)CSc2nc3ccccc3n2-c2ccccc2)c1
group: inactive

molecule: CCN(CC)CCCC(C)n1c2nc(=O)[nH]c(=O)c-2nc2cc(Cl)ccc21 (stereo not drawn)
group: inactive

molecule: CC(=O)OC1CCC2C3CCC4=C(CC(F)C(=O)C4)C3CCC12C (stereo not drawn)
group: inactive

molecule: Cc1cccc(NC(=S)N2CCC(C(=O)c3ccc(F)cc3)CC2)c1
group: inactive

molecule: COc1cccc(C(=O)Nc2nc3ccc(S(C)(=O)=O)cc3s2)c1
group: active

molecule: Cn1cc(C(=O)c2ccc(Cl)cc2Cl)cc1C(=O)NN
group: inactive

molecule: S=C(Nc1ccccc1)Nc1ccc2ccccc2c1
group: inactive

molecule: Cc1cc([N+](=O)[O-])ccc1NS(=O)(=O)c1ccccc1
group: inactive

====

target: Scavenger receptor class B member 1 (Mus musculus); experiment: mouse SR-BI DiI-HDL uptake blockers – ldlA[mSR-BI] cells, fluorescence, single point, primary screen (AID 488896); conditions: ldlA[mSR-BI] CHO cells, 3 h, at 12.5 µM
In all, about 320,000 compounds went through this assay and about 3,100 (0.97%) were called active.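 Rule for the calls: active = mean replicate inhibition of at least 70% and a set share of replicates each scoring 70 or more; inconclusive = meets just one of the two criteria; inactive = fails both criteria.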 Shown is part of a subset that was picked to be rich in actives.
Possible outcomes: active, inactive

compound: COc1ccc(C(=O)Nc2ccc3nc(N4CCCCC4)cc(C)c3c2)cc1OC
group: inactive
//
compound: CC(C)Cc1nnc(N)s1
group: inactive
//
compound: COc1cc(/C=N/NC(=O)Nc2ccccc2)ccc1OCCOc1ccccc1C
group: active
//
compound: CCOc1ccc(NC(=O)N2CCN(CC)CC2)cc1
group: inactive
//
compound: Cc1ccc(/C=N/NC(=O)C2=NNC(c3ccccc3)(c3ccccc3)C2)c(O)c1
group: active
//
compound: Cc1cc(N2CCCC2)ccc1NC(=O)COc1ccc(Cl)cc1
group: active
//
compound: CC1C(C)N(C(=O)CCl)c2ccccc2N1C(=O)CCl (configuration not stated)
group: inactive
//
compound: CCNCCC(=O)N1c2ccccc2Sc2ccc(NC(=O)OCC)cc21
group: inactive
//
compound: CCOc1ccc(NC(=O)CN2CCN(CC(=O)Nc3ccc(OC)cc3)CC2)cc1
group: active
//
compound: COc1ccc(/C=N/NC(=O)c2cc(-c3cccc(C)c3)nc3ccccc23)cc1O
group: inactive
//
compound: O=c1ccn([C@@H]2O[C@H](CNS(=O)(=O)c3cc4ccccc4s3)[C@@H](O)[C@H]2O)c(=O)[nH]1
group: inactive
//
compound: N#CC1=C(N)Oc2cc(N)ccc2C1c1ccccc1 (configuration not stated)
group: inactive
//
compound: CCOc1ccc(NC(=O)c2ccc(NC(=O)COC(=O)c3ccc(NC(=O)CC#N)cc3)cc2)cc1
group: inactive
//
compound: O=C1OCC2=C1C(c1ccc(Cl)cc1)c1cc3c(cc1O2)OCO3 (configuration not stated)
group: inactive
//
compound: Cc1ccc(SCc2c(C(=O)N/N=C/C3CC=CCC3)nnn2-c2nonc2N)cc1 (configuration not stated)
group: inactive
//
compound: COc1cc(/C=N/NC(=O)c2ccoc2C)ccc1OCCN1CCCCC1
group: inactive
//
compound: Nc1nonc1-n1nnc(C(=O)N/N=C/c2cc(Br)ccc2O)c1CSC1=NCCS1
group: active
//
compound: CCOc1ccc(NC(=O)c2ccc(NC(=O)C3CCCO3)cc2)cc1 (configuration not stated)
group: inactive
//
compound: CCCN(CCC)S(=O)(=O)c1cc2c(cc1Br)CCN2C(=O)CC
group: inactive
//
compound: Cc1cc(C)cc(OCC(=O)Nc2ccc(N3CCOCC3)cc2N2CCOCC2)c1
group: inactive
//
compound: COc1ccc(Cn2cc(CN3CCS(=O)(=O)N(Cc4ccc(-c5cccc(Cl)c5)cc4)C(C)C3=O)nn2)cc1 (configuration not stated)
group: inactive
//
compound: CCC(=O)c1ccc(OCC(=O)Nc2ccc(N3CCCCC3)cc2)cc1
group: inactive
